target: Rn_DYRK1A (Rattus norvegicus, UniProt Q63470); assay: primary screening, short panel of mammalian kinases; assay type: biochemical; details: compound 1 μM; ATP 10 µM; means, n = 2; read-out: Residual kinase activity Rn_DYRK1A
observable: remaining activity at 1 µM (%)

compound	targetUnderTest	unitAbbreviation	remaining activity at 1 µM
Cc1ccc(-n2cc(COc3cccc4cnc(Nc5cccc(-c6cccc(C(=O)O)c6)c5)nc34)nn2)c([N+](=O)[O-])c1 [Compound 13a]	Rn_DYRK1A (Rattus norvegicus, UniProt Q63470)	%	92
Cc1ccc(-n2cc(COc3cccc4cnc(Nc5cc(Cl)cc(-c6ccc(C(=O)O)cc6)c5)nc34)nn2)c([N+](=O)[O-])c1 [Compound 10b]	Rn_DYRK1A (Rattus norvegicus, UniProt Q63470)	%	82
Cc1ccc(-n2cc(COc3cccc4cnc(Nc5cc(Cl)cc(-c6cccc(C(=O)O)c6)c5)nc34)nn2)c([N+](=O)[O-])c1 [Compound 13b]	Rn_DYRK1A (Rattus norvegicus, UniProt Q63470)	%	92
